- System: normal fibroblasts (WI-38)
- METHOD: Cytotoxicity
- MEASUREMENT SETUP: Homo sapiens, WI-38, 48 h, read-out: IC50, normal fibroblasts WI-38
pIC50: −log10 of the molar value.

MOLECULE | pIC50
Cc1cc(-c2ccccc2)n(-c2nnc(NC(=O)c3ccccc3)s2)c(=O)c1C#N [Compound 10] | < 4.00
N#CC(C(=O)Nc1nnc(NC(=O)c2ccccc2)s1)=C1SC(=O)CN1c1ccccc1 [Compound 12] | < 4.00
N#CC(C(=O)Nc1nnc(NC(=O)c2ccccc2)s1)=C1Nc2ccccc2N1 [Compound 18] | < 4.00

----------
- Test system: normal fibroblasts (WI-38)
- METHOD: Cytotoxicity
- MEASUREMENT SETUP: SI = WI-38 IC50/IC50 against cancer cells
MEASUREMENT LABEL: selectivity index (SI)

COMPOUND | RESULT
Cc1cc(C)n(-c2nnc(NC(=O)c3ccccc3)s2)c(=O)c1C#N | 2.5
N#CC(C(=O)Nc1nnc(NC(=O)c2ccccc2)s1)C(=S)Nc1ccccc1 (stereo not drawn) | 4.1
N#CC(=Cc1ccc([N+](=O)[O-])cc1)C(=O)Nc1nnc(NC(=O)c2ccccc2)s1 | 0.4
N#CC(C(=O)Nc1nnc(NC(=O)c2ccccc2)s1)=C1Nc2ccccc2O1 | 6.1
N#CC(C(=O)Nc1nnc(NC(=O)c2ccccc2)s1)=C1Nc2ccccc2N1 | 1.5
CSC(SC)=C(C#N)C(=O)Nc1nnc(NC(=O)c2ccccc2)s1 | 6.0
